Entry source: PubChem BioAssay (NCI)

Please go through the items and note down their TGI.
Test system: HT29 colon
Test: NCI tumour cell line growth inhibition, 48 h

Reported TGI of Cc1cccc(-c2nc3ccc([N+](=O)[O-])cc3c(=O)o2)c1 : > 100 µM

Reported TGI of C=CC(Br)(CBr)CCC(Cl)C(C)C (configuration not stated) : 3.17 µM

Reported TGI of NC(=O)C(N)Cc1ccc(O)cn1 (configuration not stated) : > 100 µM

Reported TGI of CCCCCCCCCC/C=C/CC(=O)SCCNC(=O)CCNC(=O)[C@@H](O)C(C)(C)COP(=O)(O)OP(=O)(O)OCC1OC(n2cnc3c(N)ncnc32)C(O)C1OP(=O)(O)O (some centres not stated) : > 10 µM

Reported TGI of O=C1CCCC/C(=C/c2ccccc2)N1 : > 100 µM

Reported TGI of C[C@]12CC[C@H](O)CC1=CC[C@@H]1[C@@H]2CC[C@]2(C)C(=O)[C@@H](N3CCOCC3)C[C@@H]12 : > 100 µM

Reported TGI of CC(SC(C)C(=O)N/N=C/c1cccc(Cl)c1)C(=O)N/N=C\c1cccc(Cl)c1 (configuration not stated) : 32.1 µM

Reported TGI of O=C(O)c1n[nH]nc1Cl : > 100 µM

Reported TGI of CCCCCCCCCCCCCCCCCCNc1ccn(C2OC(COP(=O)(O)OCC3OC(n4cc(C)c(=O)[nH]c4=O)CC3O)C(O)C2O)c(=O)n1 (configuration not stated) : 30.4 µM

Reported TGI of CCC[CH2][Ge]([CH2]CCC)([CH2]CCC)[O]C(=O)CC(=O)c1ccccc1 : 11.1 µM

Reported TGI of CS(=O)(=O)Nc1ccc(N2Cc3cnc4ccc5[nH]ccc2c5c34)cc1 : 95.7 µM

Reported TGI of CN(C)Cc1cc(C(=O)/C=C/c2ccc(Cl)cc2)cc(CN(C)C)c1O : 18.6 µM

Reported TGI of O=C(O/N=C1/CCCC/C1=C\c1ccccc1)c1ccccc1 : > 100 µM

Reported TGI of Clc1c(Cl)c(Cl)c2nn(C3CCCO3)nc2c1Cl (configuration not stated) : > 100 µM

Reported TGI of O=C(c1ccccc1)c1cc(Cl)ccc1OCCCCN1CCN(CCCCOc2ccc(Cl)cc2C(=O)c2ccccc2)CC1 : 7.66 µM

Reported TGI of O=[n+]1c2c(n([O-])c3ccccc31)CCCCCCCCCC2 : > 100 µM

Reported TGI of COc1cc(C[S+]2CCCC2)c(SC)cc1C[S+]1CCCC1 : > 100 µM

Reported TGI of S=C(c1c[nH]c2ccccc12)N1CCOCC1 : > 100 µM

Reported TGI of CNC(=S)NC1CCCCC1NC(=S)NC (configuration not stated) : > 100 µM

Reported TGI of O=C(OCc1ccc2cccc(O)c2n1)N1CCN(C(=O)c2cc3cc(F)ccc3[nH]2)CC1 : 3.05 µM

Reported TGI of Cc1ccc(S(=O)(=O)Oc2cc(-c3ccccc3)nc3ccccc23)cc1 : 7.54 µM

Reported TGI of CC(=O)O.CC(=O)O.CC(=O)O.CC(=O)O.CC(=O)O.CC(=O)O.O.[Ti].[Ti] : > 100 µM

Reported TGI of CC(C)=C[C@@H]1C[C@H](C)[C@H]2CC[C@H](C)C3=C2[C@](O)(OC3=O)[C@]1(C)O : > 100 µM

Reported TGI of COc1ncnc(C2CC2)c1-c1ncc2cnn(Cc3ccc(-c4nc(C(F)(F)F)cn4C(C)C)cc3)c2n1 : > 100 µM

Reported TGI of COc1cc(Nc2cnc3cc(F)c(F)cc3n2)cc(OC)c1OC : > 100 µM

Reported TGI of O=C(/C=C/c1ccc(O)cc1)OC[C@@H](O)COC1OC(CO)C(O)C(O)C1O (some centres not stated) : > 100 µM

Reported TGI of COC(=O)C1=C(C)N(NC(=O)c2ccccc2)C(C)(O)C12CCOC2=O (configuration not stated) : > 100 µM

Reported TGI of COc1ccc2nc3ccc(OC)cc3c(S(=O)CCCl)c2c1 (configuration not stated) : 4.39 µM

Reported TGI of Nc1nc(Cl)c(N)c(NC23CC4CC(CC(C4)C2)C3)n1 : 3.42 µM

Reported TGI of Nc1nc(N)c2[nH]c(CNc3ccc(C(=O)O)cc3)nc2n1 : > 100 µM

Reported TGI of Oc1[nH]c2ccccc2c1N=Nc1ccccc1Cl : > 100 µM

Reported TGI of O=NN(CCCl)C(=O)NC1CCSc2ccccc21 (configuration not stated) : > 100 µM

Reported TGI of O=C1c2ccccc2C(=O)C1(Cl)C1(S(=O)(=O)O)c2ccccc2-c2ccccc21 : > 100 µM

Reported TGI of O=Cc1cc2c(cc1-c1c(C=O)ccc3c1OCO3)OCO2 : > 10 µM

Reported TGI of Cc1nnc(S(=O)(=O)c2ccc(N=Nc3c(N)nc(N)nc3N)cc2)s1 : > 100 µM

Reported TGI of CC1=Nc2ccccc2C1C(Cc1ccccc1N)c1c(C)[nH]c2ccccc12 (configuration not stated) : 33.1 µM

Reported TGI of COc1ccc(C2CC(c3cccc(Nc4ccncc4)c3)=NN2c2cc(Cl)cc(Cl)c2)cc1 (configuration not stated) : 5.46 µM

Reported TGI of COc1cc(-c2cc(=O)c3c(OC)c(OC)c(OC)c(OC)c3o2)c(OC)c(OC)c1OC : > 100 µM

Reported TGI of CCOC(=O)C1(Cc2ccc3c(c2)CCC3)Cc2cc3c(cc2C1)CCC3 : 37.9 µM

Reported TGI of O=[N+]([O-])c1cc2oc(COc3ccccc3)nc2cc1Cl : > 100 µM

Reported TGI of CC(=O)Oc1cccc2c(/C=N/NC(N)=S)ncc(C)c12 : 21.8 µM

Reported TGI of O=C1CN=C(C[N+](=O)[O-])c2ccccc21 : > 100 µM
